Data origin: ChEMBL document CHEMBL5236609

- Test system: Bacteria
- Protocol summary: Inhibition of bacterial VIM-4 (unknown origin) expressed in Escherichia coli EXPRESS BL21(DE3) assessed as inhibition constant by measuring rate of substrate hydrolysis at 100 uM by UV-visible spectrophotometry relative to control
I'd be grateful if you could share measured inhibition for these entries.

Data request: Request the reported inhibition associated with `Cn1cncc1CN[C@@H](CCCn1c(-c2ccccc2)n[nH]c1=S)C(=O)O`
Data returned: < 30%

Data request: Please answer likewise for `O=C(O)[C@H](CCCn1c(-c2ccccc2)n[nH]c1=S)NCc1cc[nH]c1`
Data returned: 32%

Data request: Please answer likewise for `O=C(O)[C@H](CCCn1c(-c2ccccc2)n[nH]c1=S)N(Cc1ccccc1)Cc1ccccc1`
Data returned: 64%

Data request: Please answer likewise for Cc1ccc(C(C)N[C@@H](CCCn2c(-c3ccccc3)n[nH]c2=S)C(=O)O)cc1 (some centres not stated)
Data returned: < 30%

Data request: Please answer likewise for `Cc1[nH]cnc1CN[C@@H](CCCn1c(-c2ccccc2)n[nH]c1=S)C(=O)O`
Data returned: < 30%

Data request: Please answer likewise for `O=C(O)[C@H](CCCn1c(-c2ccccc2)n[nH]c1=S)NCc1ccccn1`
Data returned: < 30%

Data request: Please answer likewise for `O=C(O)[C@H](CCCn1c(-c2ccccc2)n[nH]c1=S)NCc1ccccc1`
Data returned: < 30%

Data request: Please answer likewise for `O=C(O)[C@H](CCCn1c(-c2ccccc2)n[nH]c1=S)NCc1cccnc1`
Data returned: < 30%

Data request: Please answer likewise for `O=C(O)[C@H](CCCCn1c(-c2ccccc2)n[nH]c1=S)NCc1c[nH]cn1`
Data returned: < 30%

Data request: Please answer likewise for `O=C(O)[C@H](CCCn1c(-c2ccccc2)n[nH]c1=S)NCc1c[nH]cn1`
Data returned: < 30%

Data request: Please answer likewise for `O=C(O)[C@H](CCCn1c(-c2ccccc2)n[nH]c1=S)NCc1c[nH]c2ccccc12`
Data returned: < 30%

Data request: Please answer likewise for `O=C(O)[C@H](CCCn1c(-c2ccccc2)n[nH]c1=S)NCc1cscn1`
Data returned: 43%
